- Test system: Escherichia coli TOP10;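 also: peptides expressed intracellularly from a pBAD plasmid library in pooled LB shake-flask culture, induced with 0.3% L-arabinose, DNA abundance read by NGS, three biological replicates, DESeq2 with apeglm shrinkage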
- Experimental Protocol: shrunken log2 fold change of peptide-encoding DNA abundance (4.5 h post-induction vs induction); higher = less antimicrobial activity (less host growth inhibition)
- Assay Setup: time post-induction: 4.5 h; library: site-saturation at positions 5, 18, 19, 20
Output: class label from shrunken log2 fold change. Mapping: band 1: < -0.4; band 2: ≥ -0.4 and < -0.01; band 3: ≥ -0.01

| Primary Sequence | Group Label |
| --- | --- |
| RRIRCRPPRLPRPRPRPWGLPRP | band 2 |
| RRIRTRPPRLPRPRPRPQDHPRP | band 1 |

query: Any idea which band `RRIRHRPPRLPRPRPRPDSNPRP` is in?
result: band 2

query: Entry `RRIRYRPPRLPRPRPRPAYPPRP` belongs to which category?
result: band 1

query: Given `RRIRPRPPRLPRPRPRPICCPRP` , name the class its shrunken log2 fold change places it in.
result: band 2

query: // bin(item) where item = `RRIRNRPPRLPRPRPRPCTWPRP`
result: band 3

query: Assign a category based on measured shrunken log2 fold change for `RRIRPRPPRLPRPRPRPHIDPRP` and give only the class name.
result: band 2

query: Entry `RRIRIRPPRLPRPRPRPLIHPRP` belongs to which category?
result: band 1

query: Categorize the following entry: `RRIRVRPPRLPRPRPRPYSNPRP`
result: band 1

query: Which shrunken log2 fold change band matches `RRIRGRPPRLPRPRPRPQTTPRP` ?
result: band 3
